Molecular target: ULK1 (Homo sapiens, UniProt O75385)
Construct: purchased Promega V3521
Sequence (O75385 1-1050): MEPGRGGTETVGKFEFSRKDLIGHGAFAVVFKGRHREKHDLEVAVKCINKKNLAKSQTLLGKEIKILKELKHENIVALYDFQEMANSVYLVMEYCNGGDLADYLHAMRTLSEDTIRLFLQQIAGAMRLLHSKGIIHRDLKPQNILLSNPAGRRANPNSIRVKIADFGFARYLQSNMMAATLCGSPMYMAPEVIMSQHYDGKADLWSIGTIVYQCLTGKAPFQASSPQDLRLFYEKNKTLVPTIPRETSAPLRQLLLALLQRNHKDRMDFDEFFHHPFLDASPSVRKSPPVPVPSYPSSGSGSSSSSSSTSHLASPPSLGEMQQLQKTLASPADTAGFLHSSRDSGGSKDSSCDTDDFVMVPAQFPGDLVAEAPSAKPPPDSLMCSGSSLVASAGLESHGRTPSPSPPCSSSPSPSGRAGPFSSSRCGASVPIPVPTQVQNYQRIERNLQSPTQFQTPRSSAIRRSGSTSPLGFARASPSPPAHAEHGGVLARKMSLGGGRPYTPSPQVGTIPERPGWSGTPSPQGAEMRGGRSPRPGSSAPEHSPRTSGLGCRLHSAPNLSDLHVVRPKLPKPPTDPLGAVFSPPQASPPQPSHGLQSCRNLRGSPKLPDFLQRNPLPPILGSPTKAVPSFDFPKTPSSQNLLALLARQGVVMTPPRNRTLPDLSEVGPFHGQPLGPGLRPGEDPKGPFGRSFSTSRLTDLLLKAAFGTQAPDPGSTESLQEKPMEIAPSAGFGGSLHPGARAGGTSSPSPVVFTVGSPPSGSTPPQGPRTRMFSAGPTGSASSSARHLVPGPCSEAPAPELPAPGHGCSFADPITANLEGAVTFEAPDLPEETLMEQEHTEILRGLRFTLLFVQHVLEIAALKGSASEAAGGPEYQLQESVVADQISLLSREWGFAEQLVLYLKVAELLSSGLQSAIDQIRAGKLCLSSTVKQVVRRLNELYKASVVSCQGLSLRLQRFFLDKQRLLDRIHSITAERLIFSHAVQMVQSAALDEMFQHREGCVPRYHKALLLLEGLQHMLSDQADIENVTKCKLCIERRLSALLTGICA
Assay: Inhibition of ULK1 protein activity (phosphorylation function), ADP-Glo method
Assay type: biochemical
Conditions: ADP-Glo; ULK1 (Promega), ATP and MBP substrate, 60 min at room temperature; 10 concentrations, maximum 10 µM; read-out: ULK1 IC50
pIC50: −log10 of the molar value.
endpoint: pIC50

- molecule: "CN1CCN2c3ccc(Nc4ncc(C(F)(F)F)c(O[C@H]5CC[C@@H](n6cccn6)CC5)n4)cc3COCC2C1 (stereo partly shown)"
  pIC50: "> 7.00"
- molecule: "CN1CCC2(CC1)CCN(c1nc(Nc3ccc4c(c3)COCC3CN(C)CCN43)ncc1C(F)(F)F)CC2 (stereo not shown)"
  pIC50: "6.00 to 7.00"
- molecule: "CN1CCN2c3ccc(Nc4ncc(C(F)(F)F)c(OCCCN5CCCCC5=O)n4)cc3OCCC2C1 (stereo not shown)"
  pIC50: "> 7.00"

Task: Value wanted: pIC50 (ULK1 (Homo sapiens, UniProt O75385)) of entry CN1CCN2c3ccc(Nc4ncc(C(F)(F)F)c(OCCCN5CCCCC5=O)n4)cc3N(C)C(=O)C2C1 (stereo not shown)
Result: > 7.00
